- Tested On: Acetylcholinesterase (Electrophorus electricus, UniProt O42275)
- Sequence (O42275 whole entry): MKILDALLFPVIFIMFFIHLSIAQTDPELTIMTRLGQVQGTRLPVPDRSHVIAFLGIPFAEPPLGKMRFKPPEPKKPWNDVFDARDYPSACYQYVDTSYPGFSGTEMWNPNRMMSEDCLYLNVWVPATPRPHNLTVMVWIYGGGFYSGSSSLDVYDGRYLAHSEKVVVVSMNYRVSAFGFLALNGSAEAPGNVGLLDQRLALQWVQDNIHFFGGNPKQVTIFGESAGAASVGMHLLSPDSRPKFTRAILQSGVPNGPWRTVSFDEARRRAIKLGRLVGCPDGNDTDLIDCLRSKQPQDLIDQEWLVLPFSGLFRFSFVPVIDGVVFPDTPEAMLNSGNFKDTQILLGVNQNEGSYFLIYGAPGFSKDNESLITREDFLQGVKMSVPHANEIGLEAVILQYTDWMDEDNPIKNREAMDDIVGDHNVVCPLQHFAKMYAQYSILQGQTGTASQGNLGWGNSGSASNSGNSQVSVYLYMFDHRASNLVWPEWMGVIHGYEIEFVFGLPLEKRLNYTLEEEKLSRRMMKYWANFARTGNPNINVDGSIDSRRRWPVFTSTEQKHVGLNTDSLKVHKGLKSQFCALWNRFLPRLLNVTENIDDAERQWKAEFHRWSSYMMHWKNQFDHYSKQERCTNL
- Procedure Summary: Inhibition of electric eel AChE incubated overnight by two fold serial dilution method
Grouping by measured IC50 is done with the following cut points: low group (below 0.3 µM), middle group (0.3 µM to below 6 µM), high group (6 µM or more)

Known results for molecules:
CN1C(=O)C(F)=C[C@@H]2[C@H]1C[C@H]2S(=O)(=O)N1CCC(Cc2ccc(F)cc2)CC1 = high group
CN1C(=O)C(F)=C[C@@H]2[C@H]1C[C@H]2S(=O)(=O)N1CCOCC1 = middle group
CCCNS(=O)(=O)[C@@H]1C[C@@H]2[C@H]1C=C(F)C(=O)N2C = middle group
O=C1N[C@@H]2C[C@@H](S(=O)(=O)NCCC3CCN(Cc4ccccc4)CC3)[C@@H]2c2c(Br)cccc21 = low group
CN1C(=O)C(F)=C[C@@H]2[C@H]1C[C@H]2S(=O)(=O)NCCc1ccccc1F = high group

Using the reported IC50, which band applies to CN1C(=O)C(F)=C[C@@H]2[C@H]1C[C@H]2S(=O)(=O)NCCC1CCN(Cc2ccccc2)CC1 ?
middle group

Also, O=C1N[C@@H]2C[C@@H](S(=O)(=O)NCCC3CCN(Cc4ccccc4)CC3)[C@@H]2c2c(Cl)cccc21 please.
low group

Same question, CN1C(=O)C(F)=C[C@@H]2[C@H]1C[C@H]2S(=O)(=O)CC1CCN(Cc2ccccc2F)CC1 this time
middle group

Ok, now CN1C(=O)C(F)=C[C@@H]2[C@H]1C[C@H]2S(=O)(=O)NCCc1ccc(F)cc1
middle group

====

- Procedure Summary: Permeability of the compound in PBS at pH 7.4 by incubated for 18 hrs by […] assay based UV- spectroscopy
- Assay type: ADME
- Experimental Context: read-out: permeability
We use 10 ×10⁻⁶ cm/s as the dividing line for Papp at 18 h: on or above the line is 1, below is 0.

CC(=O)[C@H]1CC[C@H]2[C@@H]3CCC4=CC(=O)CC[C@]4(C)[C@H]3CC[C@]12C = 1

Papp at 18 h >= 10 ×10⁻⁶ cm/s for C[C@]12CC[C@H]3[C@@H](CCC4=CC(=O)CC[C@@]43C)[C@@H]1CC[C@@H]2O ?
0

Okay, and CN1C(=O)C(F)=C[C@@H]2[C@H]1C[C@H]2S(=O)(=O)NCCC1CCN(Cc2ccccc2)CC1 ?
1

Another compound: O=C1N[C@@H]2C[C@@H](S(=O)(=O)NCCC3CCN(Cc4ccccc4)CC3)[C@@H]2c2c(Cl)cccc21
1

====

Parameter: pIC50. Scope: all listed entries.
- Tested On: Acetylcholinesterase (Electrophorus electricus, UniProt O42275)
- Procedure Summary: Inhibition of electric eel AChE using acetylthiocholine iodide as substrate preincubated for 20 mins followed by substrate addition and measured after 20 mins by DTNB reagent based Ellman's method
Kindly note that pIC50 refers to -log10 of the concentration in mol/L and answer with the value alone.

Sample records with pIC50:
CN1C(=O)C(F)=C[C@@H]2[C@H]1C[C@H]2S(=O)(=O)F = 4.73
CN1C(=O)C(F)=C[C@@H]2[C@H]1C[C@H]2S(=O)(=O)N1CCC(Cc2ccc(F)cc2)CC1 = 5.10
CN1C(=O)C(F)=C[C@@H]2[C@H]1C[C@H]2S(=O)(=O)NCCc1ccc(F)cc1 = 5.34

Which measured pIC50 belongs to CN1C(=O)C(F)=C[C@@H]2[C@H]1C[C@H]2S(=O)(=O)N1CCOCC1 , tested on Acetylcholinesterase (Electrophorus electricus, UniProt O42275)?
5.89

Also CN1C(=O)C(F)=C[C@@H]2[C@H]1C[C@H]2S(=O)(=O)NCCC1CCN(Cc2ccccc2)CC1 , if possible.
6.42

And then CN1C(=O)C(F)=C[C@@H]2[C@H]1C[C@H]2S(=O)(=O)CC1CCN(Cc2ccccc2F)CC1 , what is it?
5.27

Another compound: O=C1N[C@@H]2C[C@@H](S(=O)(=O)NCCC3CCN(Cc4ccccc4)CC3)[C@@H]2c2c(Cl)cccc21
7.03

====

- Tested On: Cholinesterase (Equus caballus)
- Sequence (P81908 whole entry): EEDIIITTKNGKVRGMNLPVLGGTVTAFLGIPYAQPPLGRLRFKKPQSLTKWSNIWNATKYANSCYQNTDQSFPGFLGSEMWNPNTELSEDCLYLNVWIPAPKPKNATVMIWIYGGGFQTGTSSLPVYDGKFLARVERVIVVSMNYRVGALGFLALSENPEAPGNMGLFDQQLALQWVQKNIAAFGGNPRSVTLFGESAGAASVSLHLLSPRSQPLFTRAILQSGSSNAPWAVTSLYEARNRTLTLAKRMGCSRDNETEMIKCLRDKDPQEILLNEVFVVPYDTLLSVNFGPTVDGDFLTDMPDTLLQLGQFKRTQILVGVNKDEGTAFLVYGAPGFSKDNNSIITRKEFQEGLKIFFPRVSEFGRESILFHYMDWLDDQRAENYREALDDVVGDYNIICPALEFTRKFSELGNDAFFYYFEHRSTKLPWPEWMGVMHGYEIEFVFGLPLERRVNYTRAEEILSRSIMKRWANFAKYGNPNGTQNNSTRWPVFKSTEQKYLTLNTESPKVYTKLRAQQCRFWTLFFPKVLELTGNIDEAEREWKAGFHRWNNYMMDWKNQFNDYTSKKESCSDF
- Procedure Summary: Inhibition of equine serum BuChE using butyrylthiocholine iodide as substrate preincubated for 20 mins followed by substrate addition and measured after 20 mins by DTNB reagent based Ellman's method
Reported values of pIC50 for individual entries
Units for pIC50: none; it is -log10 of a concentration expressed in mol/L.

Look over these answered cases.
CN1C(=O)C(F)=C[C@@H]2[C@H]1C[C@@]2(Br)S(=O)(=O)F = 4.85
CC1=C[C@@H]2[C@@H](C[C@@]2(Br)S(=O)(=O)F)N(C)C1=O = 4.97
O=C1N[C@@H]2C[C@@H](S(=O)(=O)F)[C@@H]2c2c(Cl)cccc21 = 5.10

// fetch Cholinesterase (Equus caballus) pIC50 for Cc1ccc2c(c1)[C@H]1[C@H](S(=O)(=O)F)C[C@H]1NC2=O
5.30

Item: CN1C(=O)c2ccccc2[C@@H]2[C@H]1C[C@H]2S(=O)(=O)F
4.92

Now consider O=C1N[C@@H]2C[C@@H](S(=O)(=O)F)[C@@H]2c2c(Br)cccc21 and answer again.
5.48

====

IC50 values, listed per item
- Tested On: Acetylcholinesterase (Electrophorus electricus, UniProt O42275)
- Procedure Summary: Inhibition of electric eel AChE using acetylthiocholine iodide as substrate preincubated for 20 mins followed by substrate addition and measured after 20 mins by DTNB reagent based Ellman's method
Quick reminder: number only, in µM, skip the unit.

Before answering, review these 3 worked examples.
O=C1N[C@@H]2C[C@@H](S(=O)(=O)NCCC3CCN(Cc4ccccc4)CC3)[C@@H]2c2c(Br)cccc21 = 0.24
O=C1N[C@@H]2C[C@@H](S(=O)(=O)F)[C@@H]2c2c(Cl)cccc21 = 6.82
CN1C(=O)C(F)=C[C@@H]2[C@H]1C[C@H]2S(=O)(=O)NCCc1ccccc1F = 10.8

Shifting focus to the compound that follows.
For the record CCCNS(=O)(=O)[C@@H]1C[C@@H]2[C@H]1C=C(F)C(=O)N2C , what value of IC50 is listed for Acetylcholinesterase (Electrophorus electricus, UniProt O42275)?
6.78
